# Protocol text: chemical genetic growth profiling, strain panel (AID 1159580);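 note: tested at 20 µM; growth read once vehicle control cultures reached saturation at 30 °C; 1 = growth at the plate median or of vehicle wells; lower values mean less growth of the strain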
# Run conditions: S. cerevisiae deletion strains, growth OD, locus YFR010W, strain ubp6, stronger effect = lower value
Among all 5,500 compounds or so, about 2,000 (36%) were called active. Inconclusive results (about 18%) are left out. The list shows a part of the results.
Endpoint label: normalized growth
Numbers only.

# Compound, normalized growth
measured = [
    ("CC[N+](C)(C)c1cccc(O)c1", 1),
    ("CC(=O)O[C@@H]1CC2C(C)(C)C(=O)C=C[C@]2(C)C2CC[C@]3(C)C(=CC(=O)O[C@H]3c3ccoc3)[C@@]21C (some centres not stated)", 1.01),
    ("COc1ccc(C2Sc3ccccc3N(CCN(C)C)C(=O)C2OC(C)=O)cc1 (configuration not stated)", 0.938),
    ("CN(C)CCCN1c2ccccc2CCc2ccc(Cl)cc21", 0.882),
    ("Oc1cccc(O)c1", 0.966),
    ("CN(C)CCCN1c2ccccc2CCc2ccccc21", 1.01),
]

Recorded normalized growth (compound CN(C)CCCN1c2ccccc2Sc2ccc(C(F)(F)F)cc21 ): 0.831
